All figures here come from paper PMC13360575.

Target: chicken IgY (chicken)
Assay: BLI; Octet, SAX (streptavidin) biosensors; recombinant Fabs against IgY; KD from a kinetic 1:1 model, global fit over multiple concentrations (partial fits averaged for 3 low-affinity Fabs)
pKd: −log10 of the molar value.
METRIC: pKd

[[record]]
binder = "clone 2.1 Fab TA_3 (Fab, V domains shown) VH: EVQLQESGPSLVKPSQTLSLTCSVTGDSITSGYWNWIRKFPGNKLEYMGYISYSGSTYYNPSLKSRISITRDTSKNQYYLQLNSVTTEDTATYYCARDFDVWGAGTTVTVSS VL: DIVMTQSQKFMSTSVGDRVSVTCKASQNVGTNVVWYQQKPGQSPKALIYSASYRYSGVPDRFTGSGSGTDFTLTISNVQSEDLAEYFCQQYNSYPLTFGSGTKLEIK"
metric = "pKd"
measured_number = 7.27

[[record]]
binder = "clone 2.1 Fab TA_12 (Fab, V domains shown) VH: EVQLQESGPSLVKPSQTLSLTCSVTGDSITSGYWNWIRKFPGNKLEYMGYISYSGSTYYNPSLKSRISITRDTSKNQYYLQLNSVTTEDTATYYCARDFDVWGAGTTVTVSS VL: DIVMTQSQKFMSTSVGDRVSVTCKASQNVGTNVAWFQQKPGQSPKALIYSASYRYSGVPDRFTGSGSGTDFTLTISNVQSEDLAEYFCQQYNSYPLTFGSGTKLEIK"
metric = "pKd"
measured_number = 7.64

[[record]]
binder = "clone 2.1 Fab TA_16 (Fab, V domains shown) VH: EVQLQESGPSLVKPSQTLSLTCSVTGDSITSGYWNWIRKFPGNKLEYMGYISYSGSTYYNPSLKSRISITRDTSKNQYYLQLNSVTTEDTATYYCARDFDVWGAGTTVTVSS VL: DIVMTQSQKFMSTSVGDRVSVTCKASQNVGTNVGWYQQKPGQSPKSLIFSASYRYSGVPDRFTGSGSGTDFTLTISNVQSEDLAEYFCQQYNSYPLTFGSGTKLEIK"
metric = "pKd"
measured_number = 8.83

